Quick reference for GI50 among some compounds
System: IGROV-1
Test: NCI tumour cell line growth inhibition, 48 h
Active and inactive are the calls of the source. Cut-off read from the data, not from the text of the source: active = GI50 up to about 1.1 µM and inactive = higher.
Property measured: GI50

INSERT INTO measurements (compound, test_system, reported_measurement) VALUES
  ('CC/C=C\C/C=C\C/C=C\CCCCCCCC(=O)OC(COC(=O)CCCCCCCCCCCCCCCCC)COC1OC(CO)C(O)C(O)C1O (centres undefined)', 'IGROV-1', '12.3 µM (inactive)'),
  ('Cc1cc(Cl)ccc1NC(=O)CC1SC(Nc2ccccc2Cl)=NC1=O (centres undefined)', 'IGROV-1', '49.5 µM (inactive)'),
  ('Cc1cc(C)nc(NS(=O)(=O)c2ccc(Nc3c4ccccc4nc4c(C(=O)N5CCN(CCO)CC5)ccc(Cl)c34)cc2)n1', 'IGROV-1', '> 100 µM (inactive)'),
  ('O=c1cc(/N=N/c2ccc(O)cc2)[nH]c(=O)[nH]1', 'IGROV-1', '> 100 µM (inactive)'),
  ('Cc1sc2c(c1C)C(=O)c1cccn1-2', 'IGROV-1', '64.7 µM (inactive)'),
  ('O=C(c1ccccc1)c1c2ccccn2c2cccc[n+]12', 'IGROV-1', '> 100 µM (inactive)'),
  ('N#CCN1C(=O)c2cccc3cc([N+](=O)[O-])cc(c23)C1=O', 'IGROV-1', '42.9 µM (inactive)'),
  ('COc1ccc(/C=C2\N=C(N3CCCC(CO)C3)NC2=O)cc1 (centres undefined)', 'IGROV-1', '> 100 µM (inactive)'),
  ('Cc1nc2c(=O)n(C)c(=O)nc-2n(-c2ccc(Cl)cc2)c1C', 'IGROV-1', '> 100 µM (inactive)');

* * *

Test system: OVCAR-5
Experiment: NCI tumour cell line growth inhibition, 48 h
The source made the active and inactive calls. Cut-off read from the data, not from the text of the source: active = GI50 up to about 1.1 µM and inactive = higher.
Classes used: Y for active, N for inactive

INSERT INTO assay_data (compound, class_assignment) VALUES
  ('CC(C)(O)[C@@H]1CC[C@](C)(C2[C@@H](O)C[C@@]3(C)C4C[C@H](OC5OCC(O)C(O)C5O)[C@H]5C(C)(C)[C@@H](OC6OCC(O)C(O)C6OC6OCC(O)C(O)C6O)CC[C@@]56C[C@@]46CC[C@]23C)O1 (some centres not stated)', 'N'),
  ('Clc1ccc(/N=c2\oc3ccccc3cc2-c2nc3ccccc3[nH]2)c(Cl)c1', 'N'),
  ('O=C(O)COc1c(Cl)cc(Cl)c(C(c2c(Cl)cc(Cl)c(OCC(=O)O)c2Cl)C(Cl)(Cl)Cl)c1Cl', 'N'),
  ('O=c1[nH][nH]c(=O)n1Cc1ccccc1Cn1c(=O)[nH][nH]c1=O', 'N'),
  ('O=C1C=CC(=O)c2c(O)c(N3CCN(c4ccccn4)CC3)cc(O)c21', 'N'),
  ('O=c1cccc(C2CC(CO)C3CCCCN3C2)[nH]1 (configuration not stated)', 'N'),
  ('CCC/C(=N\NC(=S)N1CC2CCC(CC2)C1)c1ccccn1', 'Y'),
  ('C=C(Cl)[C@@](Cl)(CBr)CC[C@@H](Br)C(C)(C)Cl', 'N'),
  ('O=S(=O)(O)CCCc1cccc2ccccc12', 'N'),
  ('CC(=O)n1nc(-c2nc3ccccc3nc2Cl)cc1Cl', 'N'),
  ('COc1cc(/C=C2\Sc3scc(-c4cccc([N+](=O)[O-])c4)[n+]3C2=O)cc(OC)c1OC', 'N'),
  ('FC(F)(Sc1ncccn1)c1nc2ccccc2o1', 'N');
